condition info: 298.15 K; 35000 kPa; Liquid
readout label: mass density (kg/m3)
Give bare numbers, in kg/m3.

Worked examples, 3 compounds total:
compound: CCOS(=O)(=O)[O-].CCn1cc[n+](C)c1 [1-ethyl-3-methylimidazolium ethyl sulfate]
unit label: kg/m3
mass density: 1258.7
//
compound: CCn1cc[n+](C)c1.COS(=O)(=O)[O-] [1-ethyl-3-methylimidazolium methylsulfate]
unit label: kg/m3
mass density: 1301.9
//
compound: CCn1cc[n+](CC)c1.O=S(=O)([N-]S(=O)(=O)C(F)(F)F)C(F)(F)F [1,3-diethylimidazolium bis[(trifluoromethyl)sulfonyl]imide]
unit label: kg/m3
mass density: 1489.5

Now look at this one.
// sample CCCCCCCCCCn1cc[n+](C)c1.O=S(=O)([N-]S(=O)(=O)C(F)(F)F)C(F)(F)F , its mass density was 1303.6

----------
condition info: 313.15 K; 7500 kPa; Liquid
± gives the expanded uncertainty stated by the source.
Field: mass density. Provide a value for each of the molecules that follow.
State the value with its unit after it.

Worked examples, 3 molecules total:
molecule: CCOS(=O)(=O)[O-].CCn1cc[n+](C)c1 [1-ethyl-3-methylimidazolium ethyl sulfate]
mass density: 1236.2 ± 2.6 kg/m3
//
molecule: CCn1cc[n+](C)c1.COS(=O)(=O)[O-] [1-ethyl-3-methylimidazolium methylsulfate]
mass density: 1279.9 ± 2.8 kg/m3
//
molecule: CCn1cc[n+](CC)c1.O=S(=O)([N-]S(=O)(=O)C(F)(F)F)C(F)(F)F [1,3-diethylimidazolium bis[(trifluoromethyl)sulfonyl]imide]
mass density: 1453.7 ± 3.5 kg/m3

// sample CCCCCCCCCCn1cc[n+](C)c1.O=S(=O)([N-]S(=O)(=O)C(F)(F)F)C(F)(F)F , its mass density was 1271.3 ± 2.7 kg/m3

----------
condition info: 353.15 K; 5000 kPa; Liquid
± gives the expanded uncertainty stated by the source.
readout label: mass density

Worked examples, 2 compounds total:
compound: CCCCCCCCCCn1cc[n+](C)c1.O=S(=O)([N-]S(=O)(=O)C(F)(F)F)C(F)(F)F
mass density: 1233.2 ± 2.5 kg/m3
//
compound: CCn1cc[n+](C)c1.COS(=O)(=O)[O-] [1-ethyl-3-methylimidazolium methylsulfate]
mass density: 1248.7 ± 2.5 kg/m3

For each of the items listed, what is its mass density?
1. CCn1cc[n+](CC)c1.O=S(=O)([N-]S(=O)(=O)C(F)(F)F)C(F)(F)F [1,3-diethylimidazolium bis[(trifluoromethyl)sulfonyl]imide]
2. CCOS(=O)(=O)[O-].CCn1cc[n+](C)c1 [1-ethyl-3-methylimidazolium ethyl sulfate]

1409.9 ± 3.1 kg/m3
1206.6 ± 2.4 kg/m3

----------
condition info: 313.15 K; 5000 kPa; Liquid
Numbers after ± are expanded uncertainties.
readout label: mass density
State the value with its unit after it.

Worked examples, 2 compounds total:
compound: CCCCCCCCCCn1cc[n+](C)c1.O=S(=O)([N-]S(=O)(=O)C(F)(F)F)C(F)(F)F
endpoint result: 1269.3 ± 2.6 kg/m3
//
compound: CCn1cc[n+](CC)c1.O=S(=O)([N-]S(=O)(=O)C(F)(F)F)C(F)(F)F [1,3-diethylimidazolium bis[(trifluoromethyl)sulfonyl]imide]
endpoint result: 1451.6 ± 3.2 kg/m3

For each of the items listed, what is its mass density?
1. CCOS(=O)(=O)[O-].CCn1cc[n+](C)c1 [1-ethyl-3-methylimidazolium ethyl sulfate]
2. CCn1cc[n+](C)c1.COS(=O)(=O)[O-] [1-ethyl-3-methylimidazolium methylsulfate]

1: 1235.1 ± 2.5 kg/m3; 2: 1278.9 ± 2.6 kg/m3

----------
condition info: 333.15 K; 5000 kPa; Liquid
readout label: mass density (kg/m3)
One number for each entry, in kg/m3.

Worked examples, 3 compounds total:
compound: CCOS(=O)(=O)[O-].CCn1cc[n+](C)c1 [1-ethyl-3-methylimidazolium ethyl sulfate]
mass density / kg/m3: 1220.4
//
compound: CCn1cc[n+](CC)c1.O=S(=O)([N-]S(=O)(=O)C(F)(F)F)C(F)(F)F [1,3-diethylimidazolium bis[(trifluoromethyl)sulfonyl]imide]
mass density / kg/m3: 1430.4
//
compound: CCCCCCCCCCn1cc[n+](C)c1.O=S(=O)([N-]S(=O)(=O)C(F)(F)F)C(F)(F)F
mass density / kg/m3: 1249.8

// sample CCn1cc[n+](C)c1.COS(=O)(=O)[O-] [1-ethyl-3-methylimidazolium methylsulfate] , its mass density was 1263.4

----------
condition info: 373.15 K; 30000 kPa; Liquid
Field: mass density. Provide a value for each of the compounds that follow.
One number for each entry, in kg/m3.

Worked examples, 3 compounds total:
compound: CCOS(=O)(=O)[O-].CCn1cc[n+](C)c1 [1-ethyl-3-methylimidazolium ethyl sulfate]
mass density [kg/m3]: 1204.9
--
compound: CCn1cc[n+](C)c1.COS(=O)(=O)[O-] [1-ethyl-3-methylimidazolium methylsulfate]
mass density [kg/m3]: 1245.7
--
compound: CCn1cc[n+](CC)c1.O=S(=O)([N-]S(=O)(=O)C(F)(F)F)C(F)(F)F [1,3-diethylimidazolium bis[(trifluoromethyl)sulfonyl]imide]
mass density [kg/m3]: 1412.4

Now look at this one.
// sample CCCCCCCCCCn1cc[n+](C)c1.O=S(=O)([N-]S(=O)(=O)C(F)(F)F)C(F)(F)F , its mass density was 1237

----------
condition info: 293.15 K; 25000 kPa; Liquid
readout label: mass density (kg/m3)
Give bare numbers, in kg/m3.

Worked examples, 3 compounds total:
compound: CCn1cc[n+](C)c1.COS(=O)(=O)[O-] [1-ethyl-3-methylimidazolium methylsulfate]
mass density, kg/m3: 1301.8
--
compound: CCOS(=O)(=O)[O-].CCn1cc[n+](C)c1 [1-ethyl-3-methylimidazolium ethyl sulfate]
mass density, kg/m3: 1258.5
--
compound: CCCCCCCCCCn1cc[n+](C)c1.O=S(=O)([N-]S(=O)(=O)C(F)(F)F)C(F)(F)F
mass density, kg/m3: 1301.4

// sample CCn1cc[n+](CC)c1.O=S(=O)([N-]S(=O)(=O)C(F)(F)F)C(F)(F)F [1,3-diethylimidazolium bis[(trifluoromethyl)sulfonyl]imide] , its mass density was 1487.9

----------
condition info: 303.15 K; 35000 kPa; Liquid
Numbers after ± are expanded uncertainties.
readout label: mass density

Worked examples, 3 molecules total:
molecule: CCn1cc[n+](C)c1.COS(=O)(=O)[O-] [1-ethyl-3-methylimidazolium methylsulfate]
mass density: 1297.3 ± 4.8 kg/m3
--
molecule: CCOS(=O)(=O)[O-].CCn1cc[n+](C)c1 [1-ethyl-3-methylimidazolium ethyl sulfate]
mass density: 1255.2 ± 4.3 kg/m3
--
molecule: CCCCCCCCCCn1cc[n+](C)c1.O=S(=O)([N-]S(=O)(=O)C(F)(F)F)C(F)(F)F
mass density: 1299.6 ± 4.8 kg/m3

Now look at this one.
// sample CCn1cc[n+](CC)c1.O=S(=O)([N-]S(=O)(=O)C(F)(F)F)C(F)(F)F [1,3-diethylimidazolium bis[(trifluoromethyl)sulfonyl]imide] , its mass density was 1484.3 ± 7.4 kg/m3

----------
condition info: 373.15 K; 100 kPa; Liquid
readout label: mass density (kg/m3)
Numbers only, in kg/m3.

compound: CCOS(=O)(=O)[O-].CCn1cc[n+](C)c1 [1-ethyl-3-methylimidazolium ethyl sulfate]
readout label: mass density
unit label: kg/m3
endpoint result: 1190.1

compound: CCCCCCCCCCn1cc[n+](C)c1.O=S(=O)([N-]S(=O)(=O)C(F)(F)F)C(F)(F)F
readout label: mass density
unit label: kg/m3
endpoint result: 1209.6

compound: CCn1cc[n+](C)c1.COS(=O)(=O)[O-] [1-ethyl-3-methylimidazolium methylsulfate]
readout label: mass density
unit label: kg/m3
endpoint result: 1231.4

// sample CCn1cc[n+](CC)c1.O=S(=O)([N-]S(=O)(=O)C(F)(F)F)C(F)(F)F [1,3-diethylimidazolium bis[(trifluoromethyl)sulfonyl]imide] , its mass density was 1384.1

----------
Field: mass density. Provide a value for each of the compounds that follow.
condition info: 333.15 K; 100 kPa; Liquid
± gives the expanded uncertainty stated by the source.
State the value with its unit after it.

Worked examples, 3 compounds total:
compound: CCCCCCCCCCn1cc[n+](C)c1.O=S(=O)([N-]S(=O)(=O)C(F)(F)F)C(F)(F)F
readout label: mass density
endpoint result: 1245.5 ± 2.3 kg/m3

compound: CCn1cc[n+](CC)c1.O=S(=O)([N-]S(=O)(=O)C(F)(F)F)C(F)(F)F [1,3-diethylimidazolium bis[(trifluoromethyl)sulfonyl]imide]
readout label: mass density
endpoint result: 1425.7 ± 2.7 kg/m3

compound: CCOS(=O)(=O)[O-].CCn1cc[n+](C)c1 [1-ethyl-3-methylimidazolium ethyl sulfate]
readout label: mass density
endpoint result: 1218.3 ± 2.3 kg/m3

Now look at this one.
// sample CCn1cc[n+](C)c1.COS(=O)(=O)[O-] [1-ethyl-3-methylimidazolium methylsulfate] , its mass density was 1260.9 ± 2.4 kg/m3

Origin of values: the NIST ThermoML archive (doi:10.1021/je800316b)
